These data points were gathered from patent US20120053148A1.

System: HCV Replicon IB
Assay: HCV replicon assay in Huh-7 cells, genotype 1b (Rluc luciferase readout)
Assay type: cell-based, hepatitis C virus
Details: Hepatitis C virus, Huh-7, 72 h, HCV1B replicon, Huh-7 cells, 3 days; read-out: EC50_HCV1B_
pEC50: −log10 of the molar value.

molecule | pEC50
Cc1cc(-c2nnc(N[C@H]3C[C@](O)(CF)C3)o2)nc2c(C(C)(C)C)cc(OCC(F)F)cc12 | 9.39
Cc1cc(-c2nnc(N(CO)CC3OCCO3)o2)nc2c(C(C)(C)C)cc(C3CC3)cc12 | 8.66
Cc1cc(-c2nnc(N[C@H]3CC[C@@](O)(CF)C3)o2)nc2c(C(C)(C)C)cc(OCC(F)(F)F)cc12 | 7.71
Cc1cc(-c2nnc(N[C@H]3C[C@](O)(CCF)C3)o2)nc2c(C(C)(C)C)cc(OCC(F)(F)F)cc12 | 8.53
CO[C@@H]1CNC(CNc2nnc(-c3cc(C)c4cc(C5CC5)cc(C(F)(F)F)c4n3)s2)C1 (stereo partly shown) | 5.95
CC(C)(C)c1cc(C2CC2)cc2c(N)cc(-c3nnc(NCc4ccccn4)o3)nc12 | 8.12
CC(C)(C)c1cc(C2CC2)cc2c(N)cc(C(=O)NCC3COC3)nc12 | 7.16
CC(C)(C)c1cc(C2CC2)cc2c(N)cc(-c3nnc(NCCS(N)(=O)=O)o3)nc12 | 7.62
Cc1cc(-c2nnc(NC3COC3)o2)nc2c(C(C)(C)C)cc(OCC(F)(F)F)cc12 | 7.38
Cc1cc(-c2nnc(N[C@@H]3CCOC3)o2)nc2c(C(C)(C)C)cc(C3CC3)cc12 | 8.28
Cc1cc(-c2nnc(NCC(F)(F)CO)o2)nc2c(C(C)(C)C)cc(OCC(F)(F)F)cc12 | 8.36
Cc1cc(-c2nnc(NCC3O[C@H]4COC[C@H]4O3)o2)nc2c(C(C)(C)C)cc(C3CC3)cc12 (stereo partly shown) | 6.51
CC(C)(O)CCNc1nnc(-c2cc(N)c3cc(C4CC4)cc(C(F)(F)F)c3n2)s1 | 7.21
Cc1cc(-c2nnc(Nc3cn[nH]c3)s2)nc2c(C(C)(C)C)cc(C3CC3)cc12 | 7.85
Cc1cc(-c2nnc(NCCCCO)s2)nc2c(C(F)(F)F)cc(C3CC3)cc12 | 7.85
Cc1cc(OC(F)(F)F)c2nc(C(=O)NCc3ncccn3)cc(C)c2c1 | 6.28
Cc1cc(-c2nnc(NCC3COC(C)(C)O3)o2)nc2c(C(C)(C)C)cc(C3CC3)cc12 (stereo not shown) | 7.07
Cc1cc(-c2nnc(NCC3CC(F)(F)CN3)s2)nc2c(C(F)(F)F)cc(C3CC3)cc12 (stereo not shown) | 5.80
Cc1cc(-c2nnc(Nc3cn[nH]c3)o2)nc2c(C(C)(C)C)cc(C3CC3)cc12 | 7.12
CC[C@]1(O)C[C@@H](Nc2nnc(-c3cc(C)c4cc(OCC(F)(F)F)cc(C(C)(C)C)c4n3)o2)C1 | 8.83
Cc1cc(-c2nnc(NCC3(C)OCCO3)o2)nc2c(C(C)(C)C)cc(OCC(F)(F)F)cc12 | 8.64
CC(C)(C)c1cc(OCC(F)(F)F)cc2c(N)cc(-c3nnc(Nc4ccccn4)o3)nc12 | 9.36

* * *

Test system: HCV Replicon IB
Assay: HCV replicon assay in Huh-7 cells, genotype 1b (Rluc luciferase readout)
Assay type: cell-based, hepatitis C virus
Settings: Hepatitis C virus, Huh-7, 72 h, HCV1B replicon, Huh-7 cells, 3 days; read-out: EC50_HCV1B_
pEC50: −log10 of the molar value.
pEC50 values for the molecules below.
property.name: pEC50

molecule | assay.result
Cc1cc(-c2nnc(NCCC(C)(C)O)o2)nc2c(C(C)(C)C)cc(C3CC3)cc12 [Compound 409] | 8.03
Cc1cc(-c2nnc(NC3CSC3)o2)nc2c(C(C)(C)C)cc(OCC(F)(F)F)cc12 [Compound 505] | 8.20
CO[C@@H]1CN[C@@H](CNC(=O)c2cc(N)c3cc(C4CC4)cc(C(C)(C)C)c3n2)C1 [Compound 329] | 8.01
Cc1cc(C(=O)NC[C@@H]2CC3(CN2)OCCO3)nc2c(C(C)(C)C)cc(OCC(F)(F)F)cc12 [Compound 510] | 8.01

* * *

Tested on: HCV Replicon IB
Experiment: HCV replicon assay in Huh-7 cells, genotype 1b (Rluc luciferase readout)
Format: cell-based, hepatitis C virus
Conditions: Hepatitis C virus, 72 h; 10 uM; 1b-Rluc replicon, Huh-7 cells, 3 days; read-out: Inhibition @ 10 uM in 1b-Rluc
# reported inhibition at 10 µM; entries follow
property.name: inhibition at 10 µM (%)

molecule | measured.target | assay.result
C=C(C)c1cc(C(F)(F)F)c2nc(C(=O)NCc3ccccn3)cc(C)c2c1 | HCV Replicon IB | 99.6
CNCCCNc1nnc(-c2cc(C)c3cc(C4CC4)cc(C(F)(F)F)c3n2)s1 | HCV Replicon IB | 97.9
CCC(=O)CNC(=O)c1cc(N)c2cc(C3CC3)cc(C(F)(F)F)c2n1 | HCV Replicon IB | 100
Cc1cc(C(=O)NCc2cccc(F)n2)nc2c(C(F)(F)F)cc(C3CC3)cc12 | HCV Replicon IB | 99.8
Cc1cc(C(=O)NC2CNC(C)(C)COC2)nc2c(C(F)(F)F)cc(C3CC3)cc12 (centres unmarked) | HCV Replicon IB | 93.1
CCCCOc1cc(C(F)(F)F)c2nc(C(=O)NCc3ccccn3)cc(C)c2c1 | HCV Replicon IB | 88.8
Cc1cc(-c2nnc(Nc3ccccc3)[nH]2)nc2c(C(F)(F)F)cc(C3CC3)cc12 | HCV Replicon IB | 93.6
O=C(NCc1ccccn1)c1cc(Cl)c2cc(OC(F)(F)F)cc(Br)c2n1 | HCV Replicon IB | 86.4

* * *

The entries below come with measured inhibition at 10 µM values attached.
Test system: HCV Replicon IA
Test: HCV replicon assay in Huh-7 cells, genotype 1a
Assay type: cell-based
Conditions: Hepatitis C virus, 72 h, Huh-7 HCV replicon cells, 3 days
property.name: inhibition at 10 µM (%)

smiles.string | unit.tag | assay.result
O=C(NCc1cccs1)c1cc(O)c2cc(-c3ccccc3)cc(C(F)(F)F)c2n1 | % | 97.8
CNc1nc(C(=O)NCc2cccs2)nc2c(C(F)(F)F)cc(-c3ccccc3)cc12 | % | 99.6
O=C(NCc1cccnc1)c1cc(O)c2cc(-c3cn[nH]c3)cc(C(F)(F)F)c2n1 | % | 63.2
O=C(NCc1ccccn1)c1cc(O)c2cc(-c3ccccc3F)cc(C(F)(F)F)c2n1 | % | 69.1
O=C(NCc1nccs1)c1cc(O)c2cc(-c3cn[nH]c3)cc(C(F)(F)F)c2n1 | % | 98.1
O=C(NCc1ccncn1)c1cc(O)c2cc(-c3cn[nH]c3)cc(C(F)(F)F)c2n1 | % | 59.3
O=C(NCCc1ccccc1)c1cc(O)c2cc(-c3cn[nH]c3)cc(C(F)(F)F)c2n1 | % | 93
Cc1cccnc1CNC(=O)c1cc(O)c2cc(-c3cn[nH]c3)cc(C(F)(F)F)c2n1 | % | 98.3
O=C(NCc1cccs1)c1cc(O)c2cc(-c3ccoc3)cc(C(F)(F)F)c2n1 | % | 99.2
O=C(NCc1cccs1)c1nc(O)c2cc(-c3cn[nH]c3)cc(C(F)(F)F)c2n1 | % | 99.7

* * *

Tested on: HCV Replicon IB
Test: HCV replicon assay in Huh-7 cells, genotype 1b (Rluc luciferase readout)
Type: cell-based, hepatitis C virus
Settings: Hepatitis C virus, Huh-7, 72 h, HCV1B replicon, Huh-7 cells, 3 days; read-out: EC50_HCV1B_
pEC50: −log10 of the molar value.
Assign a class from recorded pEC50; defined classes: lower level (below 7), middle level (7 to below 8), upper level (8 or more)

molecule | class.name
Cc1cc(-c2nnc(N[C@H]3CC[C@@H](O)CC3)o2)nc2c(C(C)(C)C)cc(OCC(F)(F)F)cc12 | upper level
Cc1cc(-c2nnc(N[C@H]3C[C@](O)(CF)C3)o2)nc2c(C(C)(C)C)cc(OC(F)F)cc12 | upper level
Cc1cc(C(=O)NCC2CC(F)(F)CN2)nc2c(OC(F)(F)F)cc(C3CC3)cc12 (stereo not drawn) | middle level
Cc1cc(-c2nnc(NCC3OCCO3)o2)nc2c(S(C)(=O)=O)cc(C3CC3)cc12 | lower level
CSC(F)(F)Oc1cc(C(C)(C)C)c2nc(-c3nnc(N[C@H]4C[C@](O)(CF)C4)o3)cc(C)c2c1 | upper level
Cc1cc(-c2nnc(NCC3S(=O)(=O)CCS3(=O)=O)o2)nc2c(C(C)(C)C)cc(OCC(F)(F)F)cc12 | lower level
Cc1nnc(-c2cc(OC(F)(F)F)cc3c(N)cc(C(=O)NCc4ccccn4)nc23)[nH]1 | lower level
Cc1cc(C(=O)NCc2ncccn2)nc2c(OC(F)F)cc(OC(F)F)cc12 | middle level
Cc1cc(C(=O)Nc2cn[nH]c2)nc2c(OC(F)(F)F)cc(C3CC3)cc12 | lower level
